experiment_summary: Clearance in FVB mouse at 1 mg/kg, iv
Type: ADME, organism-based
assay_conditions: in vivo
assay_endpoint: clearance (mL/min/kg)
The figure you give is taken to be in mL/min/kg; do not add the unit.

Suppose we examine the compound CC1(COc2cc(F)c(C(=O)NS(=O)(=O)C3CC3)cc2C2CC2)CCC(F)(F)CC1 ; what clearance value has been reported? 1.6

###

Listing of entries alongside the reported Cmax.
experiment_summary: Cmax in FVB mouse at 30 mg/kg, po
Type: ADME, organism-based
Set-up: dose 30 mg/kg, route po
assay_conditions: in vivo
Note: unit µM is implicit; provide only the numeric part.

query_smiles: CC1(COc2cc(F)c(C(=O)NS(=O)(=O)C3CC3)cc2C2CC2)CCC2(CC1)CC2
readout_units: µM
Cmax: 22

Read the next record carefully.
Which Cmax value belongs to CC1(COc2cc(F)c(C(=O)NS(=O)(=O)C3CC3)cc2C2CC2)CCC(F)(F)CC1 ? 69

###

experiment_summary: Oral bioavailability in FVB mouse at 30 mg/kg
Assay type: ADME, organism-based
assay_conditions: in vivo
assay_endpoint: bioavailability

query_smiles: CC1(COc2cc(F)c(C(=O)NS(=O)(=O)C3CC3)cc2C2CC2)CCC(F)(F)CC1
reported: 49%

Here is the next item to consider.
Which bioavailability is reported for this molecule? CC1(COc2cc(F)c(C(=O)NS(=O)(=O)C3CC3)cc2C2CC2)CCC2(CC1)CC2 31%

###

experiment_summary: Drug concentration in plasma of FVB mouse model of aconitine-induced pain expressing human Nav1.7 I848T mutant at 10 mg/kg, po administered 120 mins prior to aconitine administered and measured after 70 mins by UPLC-ESI MS/MS analysis
Assay type: ADME, organism-based
assay_conditions: time 190 min
assay_endpoint: concentration at 3.167 h (µM)
Give just the number in µM; leave the unit off.

Value lookup for concentration at 3.167 h; key = CC1(COc2cc(F)c(C(=O)NS(=O)(=O)C3CC3)cc2C2CC2)CCC2(CC1)CC2 79

###

target_of_assay: Sodium channel protein type 8 subunit alpha (Homo sapiens)
Sequence (Q9UQD0 whole entry): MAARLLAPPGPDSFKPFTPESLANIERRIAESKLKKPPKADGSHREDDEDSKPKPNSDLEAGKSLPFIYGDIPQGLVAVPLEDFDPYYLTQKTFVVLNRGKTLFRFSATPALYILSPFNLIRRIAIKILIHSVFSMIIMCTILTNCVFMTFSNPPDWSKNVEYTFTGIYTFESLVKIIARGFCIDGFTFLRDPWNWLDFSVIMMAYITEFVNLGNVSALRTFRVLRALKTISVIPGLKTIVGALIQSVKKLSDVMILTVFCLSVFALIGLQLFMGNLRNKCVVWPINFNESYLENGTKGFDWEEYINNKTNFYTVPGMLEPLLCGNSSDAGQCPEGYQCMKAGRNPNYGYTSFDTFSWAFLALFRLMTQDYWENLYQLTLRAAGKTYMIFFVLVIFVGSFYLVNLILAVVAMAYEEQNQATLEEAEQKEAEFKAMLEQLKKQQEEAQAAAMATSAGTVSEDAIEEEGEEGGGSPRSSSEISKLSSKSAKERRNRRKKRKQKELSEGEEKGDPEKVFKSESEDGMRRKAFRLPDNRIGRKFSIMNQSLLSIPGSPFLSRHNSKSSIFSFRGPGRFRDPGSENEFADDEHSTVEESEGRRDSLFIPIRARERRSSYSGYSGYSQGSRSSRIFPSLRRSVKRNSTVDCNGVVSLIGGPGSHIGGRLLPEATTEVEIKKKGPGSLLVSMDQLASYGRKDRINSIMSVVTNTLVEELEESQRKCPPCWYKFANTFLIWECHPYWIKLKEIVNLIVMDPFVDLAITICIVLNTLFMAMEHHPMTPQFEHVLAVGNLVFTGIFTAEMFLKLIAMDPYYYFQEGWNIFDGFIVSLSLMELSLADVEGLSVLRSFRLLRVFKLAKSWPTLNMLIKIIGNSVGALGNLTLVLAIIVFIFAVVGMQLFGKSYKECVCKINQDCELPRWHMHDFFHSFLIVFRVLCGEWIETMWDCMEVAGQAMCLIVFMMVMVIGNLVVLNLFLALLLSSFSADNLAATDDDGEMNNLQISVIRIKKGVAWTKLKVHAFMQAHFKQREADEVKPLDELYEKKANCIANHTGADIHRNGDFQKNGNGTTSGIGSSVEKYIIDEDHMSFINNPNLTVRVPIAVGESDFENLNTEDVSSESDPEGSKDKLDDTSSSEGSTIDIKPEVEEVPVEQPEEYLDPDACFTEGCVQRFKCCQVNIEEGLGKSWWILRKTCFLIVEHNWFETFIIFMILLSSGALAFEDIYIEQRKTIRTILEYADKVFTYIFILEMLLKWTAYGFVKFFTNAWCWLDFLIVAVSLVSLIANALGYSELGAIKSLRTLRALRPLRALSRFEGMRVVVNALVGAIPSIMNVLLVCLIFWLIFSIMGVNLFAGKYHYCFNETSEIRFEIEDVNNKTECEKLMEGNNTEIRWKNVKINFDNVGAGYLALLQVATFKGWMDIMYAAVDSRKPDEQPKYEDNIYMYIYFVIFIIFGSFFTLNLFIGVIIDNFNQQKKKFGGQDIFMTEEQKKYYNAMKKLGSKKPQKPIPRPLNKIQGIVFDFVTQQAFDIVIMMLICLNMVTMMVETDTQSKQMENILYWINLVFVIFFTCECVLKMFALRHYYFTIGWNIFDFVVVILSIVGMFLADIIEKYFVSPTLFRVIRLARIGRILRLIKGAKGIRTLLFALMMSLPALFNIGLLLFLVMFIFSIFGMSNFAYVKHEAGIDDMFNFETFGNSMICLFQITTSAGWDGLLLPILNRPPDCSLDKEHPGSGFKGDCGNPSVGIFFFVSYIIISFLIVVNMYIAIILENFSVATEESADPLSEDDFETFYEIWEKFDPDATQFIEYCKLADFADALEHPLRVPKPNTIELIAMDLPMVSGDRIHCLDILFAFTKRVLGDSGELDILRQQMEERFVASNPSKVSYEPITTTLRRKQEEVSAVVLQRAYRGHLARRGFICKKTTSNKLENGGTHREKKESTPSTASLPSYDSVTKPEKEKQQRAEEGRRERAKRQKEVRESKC
experiment_summary: Inhibition of human Nav1.6 alpha subunit expressed in HEK293 cells co-expressing beta1 subunit at -35 mV holding potential by PatchXpress automated voltage clamp electrophysiology technique
Quick reference for pIC50 among some compounds
Entry type: numeric. Quantity: pIC50, the -log10 of concentration in molar units.

query_smiles: CC1(COc2cc(F)c(C(=O)NS(=O)(=O)C3CC3)cc2C2CC2)CCC(F)(F)CC1
reported: 7.31

Now turn to the next compound.
# lookup: pIC50 of CC1(COc2cc(F)c(C(=O)NS(=O)(=O)C3CC3)cc2C2CC2)CCC2(CC1)CC2 7.42

###

experiment_summary: Clearance in Sprague-Dawley rat at 1 mg/kg, iv
Type: ADME, organism-based
assay_conditions: in vivo
assay_endpoint: clearance (mL/min/kg)
Quick reminder: number only, in mL/min/kg, skip the unit.

query_smiles: CC1(COc2cc(F)c(C(=O)NS(=O)(=O)C3CC3)cc2C2CC2)CCC2(CC1)CC2
clearance / mL/min/kg: 1.2

Now for a further compound.
clearance lookup needed for CC1(COc2cc(F)c(C(=O)NS(=O)(=O)C3CC3)cc2C2CC2)CCC(F)(F)CC1 , thanks. 0.4

###

experiment_summary: Oral bioavailability in Beagle dog at 1 mg/kg
Assay type: ADME, organism-based, Canis lupus familiaris
assay_conditions: in vivo
assay_endpoint: bioavailability
Answer as a quantity: numeral, then unit.

Any idea what its bioavailability is? The compound is CC1(COc2cc(F)c(C(=O)NS(=O)(=O)C3CC3)cc2C2CC2)CCC2(CC1)CC2 68%

###

experiment_summary: Half-life in Sprague-Dawley rat at 5 mg/kg, po
Format: ADME, organism-based
assay_conditions: in vivo
assay_endpoint: half-life (h)
Record the value in h, omitting the unit from your answer.

For CC1(COc2cc(F)c(C(=O)NS(=O)(=O)C3CC3)cc2C2CC2)CCC(F)(F)CC1 , what is its reported half-life? 16.9

###

experiment_summary: Cmax in mouse at 30 mg/kg, po
Assay type: ADME, organism-based
Set-up: dose 30 mg/kg, route po
assay_conditions: in vivo
assay_endpoint: Cmax (µM)
Respond with the bare value in µM.

What value of Cmax has been recorded for this entry: CS(=O)(=O)NC(=O)c1cc(Cl)c(OCC23CC4CC(CC(C4)C2)C3)cc1F 45

###

experiment_summary: Drug concentration in brain of FVB mouse model of aconitine-induced pain expressing human Nav1.7 I848T mutant at 3 mg/kg, po administered 120 mins prior to aconitine administered and measured after 70 mins by UPLC-ESI MS/MS analysis
Format: ADME, organism-based
assay_conditions: time 190 min, read-out: Ct
assay_endpoint: concentration at 3.167 h
Returns: string containing the numeric result and its unit.

Reported concentration at 3.167 h, compound CC1(COc2cc(F)c(C(=O)NS(=O)(=O)C3CC3)cc2C2CC2)CCC2(CC1)CC2 : ____ 1900 nM

###

This listing pairs compounds with measured IC50.
target_of_assay: Sodium channel protein type 9 subunit alpha (Homo sapiens, UniProt Q15858)
Sequence (Q15858 whole entry): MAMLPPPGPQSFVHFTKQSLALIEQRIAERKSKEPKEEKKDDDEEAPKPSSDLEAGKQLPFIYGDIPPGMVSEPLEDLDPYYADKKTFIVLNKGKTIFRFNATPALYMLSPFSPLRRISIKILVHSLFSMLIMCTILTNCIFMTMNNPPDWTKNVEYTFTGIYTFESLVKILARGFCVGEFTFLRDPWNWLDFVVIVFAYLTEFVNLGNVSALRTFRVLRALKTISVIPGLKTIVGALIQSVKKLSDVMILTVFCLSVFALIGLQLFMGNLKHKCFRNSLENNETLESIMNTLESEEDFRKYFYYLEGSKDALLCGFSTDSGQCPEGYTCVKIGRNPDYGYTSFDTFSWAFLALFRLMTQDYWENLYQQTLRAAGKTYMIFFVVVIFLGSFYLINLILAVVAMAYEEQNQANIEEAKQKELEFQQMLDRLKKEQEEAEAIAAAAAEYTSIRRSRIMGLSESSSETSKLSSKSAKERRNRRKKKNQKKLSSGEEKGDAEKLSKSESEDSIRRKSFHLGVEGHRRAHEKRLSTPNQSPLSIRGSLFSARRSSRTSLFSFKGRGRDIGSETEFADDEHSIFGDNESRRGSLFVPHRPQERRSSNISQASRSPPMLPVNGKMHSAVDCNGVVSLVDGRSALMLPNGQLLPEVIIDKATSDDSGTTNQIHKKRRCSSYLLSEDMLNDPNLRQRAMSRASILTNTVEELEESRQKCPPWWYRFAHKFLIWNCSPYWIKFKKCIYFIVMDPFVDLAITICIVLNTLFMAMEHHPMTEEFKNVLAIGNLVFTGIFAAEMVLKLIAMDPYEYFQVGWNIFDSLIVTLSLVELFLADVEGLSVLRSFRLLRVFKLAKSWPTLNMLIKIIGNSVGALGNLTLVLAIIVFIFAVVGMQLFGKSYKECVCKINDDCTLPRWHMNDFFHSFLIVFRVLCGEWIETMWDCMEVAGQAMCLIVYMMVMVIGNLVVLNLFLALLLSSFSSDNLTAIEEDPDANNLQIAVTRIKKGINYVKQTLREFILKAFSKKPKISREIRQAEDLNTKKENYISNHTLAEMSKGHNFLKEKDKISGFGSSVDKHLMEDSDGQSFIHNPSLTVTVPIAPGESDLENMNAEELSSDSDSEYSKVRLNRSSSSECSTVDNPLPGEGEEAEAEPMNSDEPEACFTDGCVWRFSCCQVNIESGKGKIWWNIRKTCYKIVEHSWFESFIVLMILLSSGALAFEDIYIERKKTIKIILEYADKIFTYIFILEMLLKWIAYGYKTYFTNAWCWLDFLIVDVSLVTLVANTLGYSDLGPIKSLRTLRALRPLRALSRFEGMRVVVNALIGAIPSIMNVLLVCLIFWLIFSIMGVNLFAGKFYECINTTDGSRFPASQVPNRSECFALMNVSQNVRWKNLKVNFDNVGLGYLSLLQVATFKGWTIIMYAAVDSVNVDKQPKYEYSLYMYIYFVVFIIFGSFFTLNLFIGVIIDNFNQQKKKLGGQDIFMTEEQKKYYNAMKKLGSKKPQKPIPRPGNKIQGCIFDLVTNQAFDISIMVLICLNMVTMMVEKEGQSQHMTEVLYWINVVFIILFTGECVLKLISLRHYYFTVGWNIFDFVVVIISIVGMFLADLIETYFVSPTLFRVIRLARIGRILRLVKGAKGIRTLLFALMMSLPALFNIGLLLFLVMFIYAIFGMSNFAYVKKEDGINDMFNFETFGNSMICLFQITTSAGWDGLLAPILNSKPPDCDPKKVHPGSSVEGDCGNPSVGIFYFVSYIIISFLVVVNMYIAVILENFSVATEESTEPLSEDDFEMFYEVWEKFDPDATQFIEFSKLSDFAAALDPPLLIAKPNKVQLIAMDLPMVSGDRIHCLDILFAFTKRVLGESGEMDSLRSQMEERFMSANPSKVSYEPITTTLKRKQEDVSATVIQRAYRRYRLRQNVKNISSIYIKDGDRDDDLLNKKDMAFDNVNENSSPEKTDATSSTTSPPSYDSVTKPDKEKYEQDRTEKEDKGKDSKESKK
experiment_summary: Displacement of [3H]GX-545 from human Nav1.7 alpha subunit expressed in HEK293 cells co-expressing beta1 subunit by liquid scintillation counting analysis
Type: cell-based
Supply the numeric figure in nM, leaving out any unit text.

Sample records with IC50:
query_smiles: CS(=O)(=O)NC(=O)c1cc(Cl)c(OCC23CC4(F)CC(F)(CC(F)(C4)C2)C3)cc1F
IC50, nM: 2400
//
query_smiles: CC(C)c1cc(C(=O)NS(C)(=O)=O)c(F)cc1OCC12CC3CC(CC(C3)C1)C2
IC50, nM: 28

Sodium channel protein type 9 subunit alpha (Homo sapiens, UniProt Q15858) / IC50 / CS(=O)(=O)NC(=O)c1cc(Cl)c(OCC23CC4CC(CC(F)(C4)C2)C3)cc1F : value? 357

Again, but for COCCS(=O)(=O)NC(=O)c1cc(C2CC2)c(OCC2CCC(F)(F)CC2)cc1F 304

CS(=O)(=O)NC(=O)c1cc(C2CC2)c(OCC23CC4CC(C2)C(F)(F)C(C4)C3)cc1F ? 8

Then what about the compound CS(=O)(=O)NC(=O)c1ccc(OCC23CC4CC(CC(C4)C2)C3)c(Cl)c1 ? 330

Also CC1(COc2cc(F)c(C(=O)NS(=O)(=O)C3CC3)cc2C2CC2)CCC2(CC1)CC2 , if possible. 15

Here is the next compound: CS(=O)(=O)NC(=O)c1cc(Cl)c(OCC2CCCCC2)cc1F 180

###

target_of_assay: Cytochrome P450 2C19 (Homo sapiens, UniProt P33261)
Sequence (P33261 whole entry): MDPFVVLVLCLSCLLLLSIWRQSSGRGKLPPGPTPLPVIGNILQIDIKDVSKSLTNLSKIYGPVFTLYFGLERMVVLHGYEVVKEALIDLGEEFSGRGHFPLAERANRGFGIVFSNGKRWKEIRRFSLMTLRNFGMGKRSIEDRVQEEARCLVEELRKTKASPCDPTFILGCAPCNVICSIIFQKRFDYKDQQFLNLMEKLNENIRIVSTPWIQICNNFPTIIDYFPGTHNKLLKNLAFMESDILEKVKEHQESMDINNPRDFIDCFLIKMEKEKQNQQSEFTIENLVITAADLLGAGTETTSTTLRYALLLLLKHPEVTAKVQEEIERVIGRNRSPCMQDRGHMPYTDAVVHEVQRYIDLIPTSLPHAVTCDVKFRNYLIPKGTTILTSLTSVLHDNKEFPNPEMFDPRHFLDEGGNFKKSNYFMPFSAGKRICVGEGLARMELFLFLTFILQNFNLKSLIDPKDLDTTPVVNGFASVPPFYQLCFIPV
assay_endpoint: IC50

Report IC50 for CC1(COc2cc(F)c(C(=O)NS(=O)(=O)C3CC3)cc2C2CC2)CCC2(CC1)CC2 tested on Cytochrome P450 2C19 (Homo sapiens, UniProt P33261). > 10 µM
